Compiled record: pIC50 values for Tyrosine-protein kinase Lck (Homo sapiens, UniProt P06239) across several sources.
pIC50: −log10 of the molar value.

Solved entries (count: 2):
Smiles | pIC50
CC(=O)C(=Cc1ccc(Cl)cc1)n1nc(-c2ccccc2)c2c(N)ncnc21 | 3.96
Nc1nonc1-c1nc2ccccc2n1Cc1ccncc1 | < 5.00

// switching to the query molecule
Measured pIC50 for this entry Cc1ccc(NC(=O)c2ccc(CN3CCN(C)CC3)cc2)cc1Oc1nccc(-c2cc3ccccc3o2)n1 on Tyrosine-protein kinase Lck (Homo sapiens, UniProt P06239): < 4.60
